Reference for the values: patent US6977265B2

Hi there, I'd appreciate the recorded IC50 for every entry that follows.
// unit must come after the numeric part

Report IC50 under test system CCR-3 receptor (Homo sapiens) for `COc1ccc(NC(=S)N[C@@H]2CCC[C@H]2N2CCC(Cc3ccc(Cl)cc3)CC2)cc1` .
512 nM

Report IC50 under test system CCR-3 receptor (Homo sapiens) for `CC(=O)Nc1cccc(NC(=O)N[C@@H]2CCC[C@H]2N2CCC(Cc3ccc(Cl)cc3)CC2)c1` .
18.5 nM

Report IC50 under test system CCR-3 receptor (Homo sapiens) for O=C(Nc1ccc2ccccc2n1)N[C@@H]1CCC[C@H]1N1CCC(Cc2ccc(Cl)cc2)CC1 (racemic) .
557 nM

Report IC50 under test system CCR-3 receptor (Homo sapiens) for `O=C(N[C@@H]1CCC[C@H]1N1CCC(Cc2ccc(Cl)cc2)CC1)c1cc2cc(Cl)ccc2[nH]1` .
2690 nM

Report IC50 under test system CCR-3 receptor (Homo sapiens) for `O=[N+]([O-])c1ccccc1S(=O)(=O)N[C@@H]1CCC[C@H]1N1CCC(Cc2ccc(Cl)cc2)CC1` .
6090 nM

Report IC50 under test system CCR-3 receptor (Homo sapiens) for `CC(=O)c1cccc(C(=O)N[C@@H]2CCC[C@H]2N2CCC(Cc3ccc(Cl)cc3)CC2)c1` .
1860 nM

----------
Counter-ions that a name gives are not always drawn.
Hi there, I'd appreciate the recorded melting point for every entry that follows.

// fetch melting point given entry CS(=O)(=O)c1ccc(C(=O)N[C@@H]2CCC[C@@H]2N2CCC(Cc3ccc(Cl)cc3)CC2)cc1 (racemic) (as salt: hydrochloride)
125.3 to 131.9 °C

// fetch melting point given entry COc1cc(CCNC(=O)N[C@@H]2CCC[C@H]2N2CCC(Cc3ccc(Cl)cc3)CC2)cc(OC)c1OC (racemic) (as salt: hydrochloride)
90.3 to 95 °C

// fetch melting point given entry COc1cc(NC(=O)N[C@@H]2CC[C@@H]2N2CCC(Cc3ccc(Cl)cc3)CC2)cc(OC)c1OC (racemic) (as salt: hydrochloride)
123.7 to 127.9 °C

// fetch melting point given entry COc1cc(NC(=O)N[C@@H]2CN(C(N)=O)C[C@H]2N2CCC(Cc3ccc(Cl)cc3)CC2)cc(OC)c1OC (racemic) (as salt: hydrochloride)
158 to 162 °C

// fetch melting point given entry CS(=O)(=O)c1ccc(C(=O)N[C@@H]2CCCC[C@@H]2N2CCC(Cc3ccc(Cl)cc3)CC2)cc1 (racemic) (as salt: hydrochloride)
123.7 to 149.4 °C

// fetch melting point given entry COc1cc(NC(=O)N[C@@H]2C[C@H](OC)C[C@H]2N2CCC(Cc3ccc(Cl)cc3)CC2)cc(OC)c1OC (racemic) (as salt: hydrochloride)
112.5 to 119.5 °C

----------
Hi there, I'd appreciate the recorded melting point for every entry that follows.
Counter-ions that a name gives are not always drawn.

// fetch melting point given entry COc1cc(NC(=O)N[C@@H]2CN(S(N)(=O)=O)C[C@H]2N2CCC(Cc3ccc(Cl)cc3)CC2)cc(OC)c1OC (racemic) (as salt: hydrochloride)
155.7 to 160 °C

// fetch melting point given entry COc1cc(NC(=O)N[C@@H]2CC[C@H]2N2CCC(Cc3ccc(Cl)cc3)CC2)cc(OC)c1OC (racemic) (as salt: hydrochloride)
127.4 to 128.2 °C

// fetch melting point given entry COc1cc(NC(=O)N[C@@H]2CN(C(=O)N(C)C)C[C@H]2N2CCC(Cc3ccc(Cl)cc3)CC2)cc(OC)c1OC (racemic) (as salt: hydrochloride)
142 to 144.5 °C

// fetch melting point given entry COc1cc(NC(=O)N[C@@H]2CCC[C@@H]2N2CCC(Cc3ccc(Cl)cc3)CC2)cc(OC)c1OC (racemic) (as salt: hydrochloride)
117.5 to 122.5 °C

// fetch melting point given entry COc1cc(NC(=O)N[C@@H]2CN(S(C)(=O)=O)C[C@H]2N2CCC(Cc3ccc(Cl)cc3)CC2)cc(OC)c1OC (racemic) (as salt: hydrochloride)
148 to 158 °C

// fetch melting point given entry COc1cc(NC(=O)N[C@@H]2CN(CCS(C)(=O)=O)C[C@H]2N2CCC(Cc3ccc(Cl)cc3)CC2)cc(OC)c1OC (racemic) (as salt: hydrochloride)
210.2 to 211.8 °C

----------
Where a name gives a salt, the structure may show the parent alone.
Hi there, I'd appreciate the recorded melting point for every entry that follows.

// fetch melting point given entry COc1cc(NC(=O)N[C@@H]2CCCC[C@@H]2N2CCC(Cc3ccc(Cl)cc3)CC2)cc(OC)c1OC (racemic) (as salt: hydrochloride)
120.1 to 137.3 °C

// fetch melting point given entry COc1cc(NC(=O)N[C@@H]2COC[C@H]2N2CCC(Cc3ccc(Cl)cc3)CC2)cc(OC)c1OC (racemic) (as salt: hydrochloride)
229.2 to 230.9 °C

// fetch melting point given entry COC[C@@H]1C[C@@H](N2CCC(Cc3ccc(Cl)cc3)CC2)[C@H](NC(=O)Nc2cc(OC)c(OC)c(OC)c2)C1 (racemic) (as salt: hydrochloride)
109 to 112 °C

// fetch melting point given entry CS(=O)(=O)c1ccc(C(=O)N[C@@H]2CC[C@H]2N2CCC(Cc3ccc(Cl)cc3)CC2)cc1 (racemic) (as salt: hydrochloride)
173.2 to 184.1 °C

// fetch melting point given entry COc1cc(NC(=O)N[C@@H]2C[C@H](O)C[C@H]2N2CCC(Cc3ccc(Cl)cc3)CC2)cc(OC)c1OC (racemic) (as salt: hydrochloride)
137 to 143 °C

// fetch melting point given entry COc1cc(NC(=O)N[C@@H]2CCC[C@H]2N2CCC(Cc3ccc(Cl)cc3)CC2)cc2ccccc12 (racemic)
175 to 190 °C

----------
Hi there, I'd appreciate the recorded melting point for every entry that follows.
Where a name gives a salt, the structure may show the parent alone.

// fetch melting point given entry COc1cc(NC(=O)N[C@@H]2CCC[C@H]2N2CCC(Cc3ccc(Cl)cc3)CC2)cc(OC)c1OC (racemic) (as salt: hydrochloride)
136.1 to 138 °C

// fetch melting point given entry COc1cc(NC(=O)N[C@@H]2C[C@H](O)C[C@H]2N2CCC(Cc3ccc(Cl)cc3)CC2)cc(OC)c1OC (racemic) [Example 6]
98.7 to 102 °C

// fetch melting point given entry CS(=O)(=O)c1cccc(NC(=O)N[C@@H]2CCCC[C@H]2N2CCC(Cc3ccc(Cl)cc3)CC2)c1 (racemic) (as salt: hydrochloride)
150.2 to 151.6 °C
